In this section we review reported MIC90 values for a set of molecules.
- Tested on: N. gonorrhoeae clinical isolates (n = 38)
- method_description: microbe, parasite or virus in culture
- Type: cell-based, Neisseria gonorrhoeae
- condition_notes: Neisseria gonorrhoeae

[
  {
    "molecule": "Cl.N#Cc1ccc2ccc(=O)n([C@H]3CC[C@H](NCc4cc5c(=O)oc6ccc(F)cc6c5[nH]4)CC3)c2c1",
    "MIC90, µg/mL": 0.12
  },
  {
    "molecule": "CO/N=C(\\C(=O)N[C@@H]1C(=O)N2C(C(=O)O)=C(CSc3nc(=O)c(=O)[nH]n3C)CS[C@H]12)c1csc(N)n1 [ceftriaxone, ceftriaxone sodium, reference compound]",
    "MIC90, µg/mL": 0.094
  },
  {
    "molecule": "Cl.O=c1oc2ccc(F)cc2c2[nH]c(CN[C@H]3CC[C@H](n4c(=O)ccc5ncc(F)cc54)CC3)cc12",
    "MIC90, µg/mL": 0.03
  },
  {
    "molecule": "COc1cnc2ncc(=O)n([C@H]3CC[C@H](NCc4cc5c(=O)oc6ccc(F)cc6c5[nH]4)CC3)c2c1",
    "MIC90, µg/mL": 0.25
  },
  {
    "molecule": "O=c1oc2ccc(F)cc2c2[nH]c(CN[C@H]3CC[C@H](n4c(=O)cnc5ncc(F)cc54)CC3)cc12",
    "MIC90, µg/mL": 0.12
  },
  {
    "molecule": "Cl.O=c1oc2ccc(F)cc2c2[nH]c(CN[C@H]3CC[C@H](n4c(=O)ccc5ccc(F)cc54)CC3)cc12",
    "MIC90, µg/mL": 0.06
  },
  {
    "molecule": "O=C1COc2ncc(F)cc2N1[C@H]1CC[C@H](NCc2cc3c(=O)oc4ccc(F)cc4c3[nH]2)CC1",
    "MIC90, µg/mL": 0.12
  }
]

----------
- System: E. coli clinical isolates (n = 36)
- method_description: MIC, multidrug-resistant clinical isolates
- Assay type: cell-based, Escherichia coli
- condition_notes: Escherichia coli; E. coli MDR clinical isolates (n = 36); read-out: MIC50
Where a name gives a salt, the structure may show the parent alone.
Hi! Just check whether MIC50 is below 2 µg/mL. Below gives label 1, equal or above gives label 0.

[
  {
    "compound": "CC1(C)S[C@@H]2[C@H](NC(=O)[C@H](N)c3ccccc3)C(=O)N2[C@H]1C(=O)O [ampicillin, reference compound]",
    "answer_label": "label 0"
  },
  {
    "compound": "Cl.N#Cc1ccc2ccc(=O)n([C@H]3CC[C@H](NCc4cc5c(=O)oc6ccc(F)cc6c5[nH]4)CC3)c2c1 [Compound 2]",
    "answer_label": "label 1"
  },
  {
    "compound": "CO/N=C(\\C(=O)N[C@@H]1C(=O)N2C(C(=O)O)=C(CSc3nc(=O)c(=O)[nH]n3C)CS[C@H]12)c1csc(N)n1 [ceftriaxone, ceftriaxone sodium, reference compound]",
    "answer_label": "label 1"
  },
  {
    "compound": "C[C@@H](O)[C@H]1C(=O)N2C(C(=O)O)=C(SCCN=CN)C[C@H]12 [imipenem, imipenem monohydrate, reference compound]",
    "answer_label": "label 1"
  },
  {
    "compound": "C[C@H]1COc2c(N3CCN(C)CC3)c(F)cc3c(=O)c(C(=O)O)cn1c23 [levofloxacin]",
    "answer_label": "label 0"
  },
  {
    "compound": "Cl.O=c1oc2ccc(F)cc2c2[nH]c(CN[C@H]3CC[C@H](n4c(=O)ccc5ncc(F)cc54)CC3)cc12 [Compound 3]",
    "answer_label": "label 1"
  },
  {
    "compound": "CN(C)[C@@H]1C(O)=C(C(N)=O)C(=O)[C@@]2(O)C(O)=C3C(=O)c4c(O)cccc4[C@@](C)(O)[C@H]3C[C@@H]12 [tetracycline, tetracycline hydrochloride]",
    "answer_label": "label 0"
  },
  {
    "compound": "O=C1COc2ncc(F)cc2N1[C@H]1CC[C@H](NCc2cc3c(=O)oc4ccc(F)cc4c3[nH]2)CC1 [Compound 1]",
    "answer_label": "label 1"
  }
]

Where do the numbers come from? From paper PMC7029851.
